Origin of values: the OPERA property sets (Mansouri et al. 2018)

Assign logP to each entry below.
One number for each entry.

Before answering, review these 6 worked examples.
| COMPOUND | EXPERIMENTAL_VALUE |
| --- | --- |
| S=C=Nc1ccc2cc3ccccc3cc2c1 | 5.7 |
| CCCCNP(=O)(OC)SC (configuration not stated) | 0.94 |
| C[N+](C)(C)Cc1cccc(N)c1.[Br-] | -2.5 |
| CN1C(=O)SC(=CC=Cc2ccc([N+](=O)[O-])o2)C1=O | 1.4 |
| C=CCN1C(=O)SC(=Cc2ccc([N+](=O)[O-])o2)C1=O | 2.22 |
| CCCCCCCCCCCCCC[n+]1ccc(C)c(C)c1.[I-] | 2.93 |

Field: next compound
Fill in reported logP for this entry: CN(C)C(=O)Nc1cccc(O)c1 0.51

====

Field: logP. Provide a value for each of the compounds that follow.
Answers are plain numbers.

The examples below pair each entry with its known result.
| COMPOUND | READOUT_KIND | EXPERIMENTAL_VALUE |
| --- | --- | --- |
| COc1ccc2c(c1)C(c1ccccc1)=NCC(=O)N2 | logP | 2.24 |
| CNC(=O)Oc1cccc(C(=O)OC)c1 | logP | 1.42 |
| NNC(=O)c1ccc(Br)cc1 | logP | 1.28 |
| COc1ccccc1C(=O)NCCN | logP | 0 |
| O=C(Nc1ccccc1)c1cc(N2CC2)c([N+](=O)[O-])cc1[N+](=O)[O-] | logP | 2.23 |
| NNc1ncnc2ccccc12 | logP | 1.67 |
| CC1NC(=Nc2ncc([N+](=O)[O-])s2)OC1(C)C (stereo unspecified) | logP | 1.88 |
| CC(=O)Nc1ccc(OC(=O)CBr)cc1 | logP | 1.08 |

Hi! Can you tell me logP for each of these compounds?
1. Cn1nnnc1Sc1ccccc1
2. OCCCCn1nnc2ccccc21

1: 1.63; 2: 1.03

For each listed entry, give its logP.
1. O=[N+]([O-])C=Cc1cccc(Cl)c1
2. NC(=O)c1cccs1
3. CS(=O)(=O)NN=Cc1ccccc1
4. COC(=O)[C@@H]1[C@@H](C=C(C)C)C1(C)C
5. O=S1(=O)NC=Nc2cc(Cl)ccc21
6. COc1cc(-n2nc(C)cc2OC)ncn1

[2.57, 0.52, 1.2, 3.76, 1.01, 1.53]

Please give logP, item by item, for the list that follows.
1. COc1cc(C)nc(-n2nc(C)cc2OC)n1
2. Cn1c(=O)c(=O)n(C)c2ccccc21
3. CC1(C)N=C(N)N=C(N)N1c1ccc(I)cc1

1: 1.26; 2: 0.08; 3: 1.39

Kindly give each listed record's logP.
1. CN(C)/N=N/c1[nH]ncc1C(N)=O
2. CCCCCCCC[n+]1ccc(C)cc1C.[I-]
3. CSC(C)=NOC(=O)N(C)SN(C)C(=O)c1c(Cl)cccc1Cl
4. c1ccc(-c2ncnc3ccccc23)cc1

[-0.12, -0.57, 2.6, 2.71]

Look up logP for the entries below, preserving their order.
1. COCCOc1ccccc1OCCOC
2. Cc1ccc(C(C)C)c(OC2OC(CO)C(O)C(O)C2O)c1 (stereo unspecified)
3. Cc1ccccc1C1=NCC(=O)N(C)c2ccc(Cl)cc21
4. CCOC(=O)CCCn1nnc2ccccc21
5. CC(=O)C(C#N)=NNc1ccc(Cl)cc1
6. O=S(=O)(Nc1ccc(I)cc1)C(F)(F)F

1.12
1.07
3.03
1.86
4.1
4.39

For each of the compounds below, note its logP.
1. COP(=O)(OC)Oc1ccc([N+](=O)[O-])cc1Cl
2. CCCCO[N+](=O)[O-]
3. CCCOP(N)(=O)SCCC (stereo unspecified)
4. O=C(O)COc1cccc(S(=O)(=O)C(F)(F)F)c1

[1.83, 2.15, 1.23, 2.19]

Hi team, please reply with logP for each item in this list.
1. Nc1cc([N+](=O)[O-])cc(Cl)c1O
2. COC(=O)C(C#N)=NNc1ccc(C(F)(F)F)cc1
3. CC(C)n1nnc2ccccc21
4. CN(C(=O)COc1ccccc1)c1ccccc1
5. CN(C)C(=O)Cc1ccsc1
6. O=C1CN=C(c2ccccc2F)c2cc(I)ccc2N1CC(O)CO (stereo unspecified)
7. COCN1C(=O)C(O)N=C(c2ccccc2)c2cc(N)ccc21 (stereo unspecified)

1.53
3.79
1.98
2.25
0.65
1.81
0.75

// each listed compound needs a value for logP
1. CCN(CC)/N=N/c1nc[nH]c1C(N)=O
2. N=C(N)NC(=O)Nc1ccc([N+](=O)[O-])c(Cl)c1
3. COc1ccc(CN(C)N=Nc2ccc(C(=O)O)cc2)cc1
4. CCCOn1c(=O)[nH]c(CCC)c(Br)c1=O
5. COC12C(COC(N)=O)C3=C(C(=O)C(C)=C(N)C3=O)N1CC1C2N1COC(=O)c1ccccc1 (stereo unspecified)
6. COc1ccc(N(C)C(C)=O)cc1
7. CC(=O)C(C#N)=NNc1ccc2c(c1)OC(F)(F)C(F)(F)O2
8. COc1cc(Cc2cnc(N)nc2N)ccc1O

0.78
1.79
4.43
1.73
1.26
0.72
5.31
0.64
